# Test system: UACC-62
# EXPERIMENTAL_DETAILS: NCI tumour cell line growth inhibition, 48 h
Calls of active or inactive are those of the source. No stated cut-off is given here; in the data, active = GI50 up to about 1.1 µM and inactive = higher.
REPORTED_PROPERTY: GI50

Consider the following illustrative entries.
- COMPOUND: "CC(C)CC(NC(=O)OCc1ccccc1)C(=O)NCCCCC(N)C(=O)NC(CCCCNC(=O)C(CC(C)C)NC(=O)OCc1ccccc1)C(=O)NC(CCCCNC(=O)C(CC(C)C)NC(=O)OCc1ccccc1)C(=O)NC(CCCCNC(=O)C(CC(C)C)NC(=O)OCc1ccccc1)C(=O)NC(CCCCNC(=O)C(CC(C)C)NC(=O)OCc1ccccc1)C(=O)NC(CCCCNC(=O)C(CC(C)C)NC(=O)OCc1ccccc1)C(=O)O (centres undefined)"
  GI50: "> 100 µM (inactive)"
- COMPOUND: "Oc1ccc2ccccc2c1/N=N/c1ccc(Br)cc1"
  GI50: "> 100 µM (inactive)"
- COMPOUND: "COc1ccc(NC(=O)CC(=O)NNC(Sc2ccccc2)c2cc(/N=N/c3ccc(Br)cc3)ccc2O)cc1 (centres undefined)"
  GI50: "> 10 µM (inactive)"

Would you kindly look at the next entry?
Input line: Bench note: what GI50 did COC(=O)C(=O)C(C(C)=O)C(=O)C(=O)Nc1ccc(C)cc1C (centres undefined) show?
Output line: > 100 µM (inactive)

----------
# Tested on: OVCAR-8
# EXPERIMENTAL_DETAILS: NCI tumour cell line growth inhibition, 48 h
Active and inactive are the calls of the source. Rule as the data show it: active = GI50 up to about 1.1 µM and inactive = higher.
Outcomes you can answer with include only these: t = active, f = inactive

- COMPOUND: "Cc1sc(Nc2ccccc2[N+](=O)[O-])c(C#N)c1C"
  LABEL: "f"
- COMPOUND: "CC(=O)O[C@@H]1C2=C(C3=C([O-])C4=CC=CC(=O)C4C(=O)C3=C2[N+]#N)[C@H](OC(C)=O)[C@@H](OC(C)=O)[C@]1(C)O (stereo partly specified)"
  LABEL: "t"

Input line: Call for entry CC(=O)OCC1OC(n2c3c(c(-c4ccc(C)cc4)c(C#N)c2=S)C(=O)CC(C)(C)C3)C(OC(C)=O)C(OC(C)=O)C1OC(C)=O (stereo unspecified) :
Output line: f

Input line: Status in this test for `C=CCN1C(=O)/C(=C/c2ccc(OC)cc2)NC1=S` ?
Output line: f

Input line: Record lookup: outcome of this test for `O=NN(CCCl)C(=O)N[C@H]1CC[C@H](C(=O)O)CC1` ?
Output line: f

Input line: State the result this test recorded for `O=C(O)CN(c1ccccc1)S(=O)(=O)c1ccc(NC(=O)c2ccccc2)cc1` .
Output line: f

----------
# Tested on: NCI-H460
# EXPERIMENTAL_DETAILS: NCI tumour cell line growth inhibition, 48 h
Activity calls are given as the source filed them. Rule as the data show it: active = GI50 up to about 1.1 µM and inactive = higher.
Outcome field: choose from true (1) for active, false (0) for inactive

Known results for molecules:
- MOLECULE: "CCN(CC)C(=S)N/N=C/c1ccccn1"
  LABEL: "true (1)"
- MOLECULE: "Cn1nc(-c2ccccc2)c(C(=O)/C=C/c2ccc(F)cc2)c(N2CCCCC2)c1=O"
  LABEL: "false (0)"
- MOLECULE: "CN(C)c1cccc2c(S(=O)(=O)NCCN)cccc12"
  LABEL: "false (0)"
- MOLECULE: "C/C(=N\\Nc1nc2ccccc2n1C)c1ccc2ccccc2n1"
  LABEL: "false (0)"
- MOLECULE: "O=C(c1cccc(F)c1F)N1CCc2c([nH]c3ccccc23)C1c1ccc2c(c1)OCO2 (centres undefined)"
  LABEL: "false (0)"
- MOLECULE: "Cc1cc(N(CCC#N)CCC#N)ccc1C(/N=N/c1ccccc1)=N\\NC(=O)c1cc(Cl)ccc1O"
  LABEL: "false (0)"
- MOLECULE: "Cc1cc2nc3n(c2cc1C)C(c1c(F)cccc1F)SC3 (centres undefined)"
  LABEL: "false (0)"
- MOLECULE: "Cc1cccc(/C=C2\\CCCc3ccccc3C2=O)c1"
  LABEL: "false (0)"

Next molecule, please.
Input line: Tell me the recorded outcome of this test for C=CC1=C(C)/C(=C/C2=NC(=C\c3[nH]c(CC4NC(=O)C(C)/C4=C\C)c(C)c3CCC(=O)O)/C(CC(=O)O)=C2C)NC1=O (centres undefined) .
Output line: false (0)

----------
# System: NCI-H460
# EXPERIMENTAL_DETAILS: NCI tumour cell line growth inhibition, 48 h
Calls of active or inactive are those of the source. Rule as the data show it: active = GI50 up to about 1.1 µM and inactive = higher.
REPORTED_PROPERTY: GI50

Illustrative cases are given below, each with its answer.
- COMPOUND: "O=c1[nH]nc(Cc2ccccc2)n1C1CCCC1"
  SYSTEM: "NCI-H460"
  REPORTED: "> 100 µM (inactive)"
- COMPOUND: "O=C1OC(c2ccc(Cl)cc2)=N/C1=C\\c1ccccc1"
  SYSTEM: "NCI-H460"
  REPORTED: "> 100 µM (inactive)"
- COMPOUND: "CCCCCCCCCCCCCCCCCC(=O)OCC(COC(=O)CCCN)OC(=O)CCCN (stereo not given)"
  SYSTEM: "NCI-H460"
  REPORTED: "14.9 µM (inactive)"
- COMPOUND: "Cc1cc(S(=O)(=O)/N=C(\\NN)NNc2cccc(C(F)(F)F)n2)c(S)cc1Cl"
  SYSTEM: "NCI-H460"
  REPORTED: "26.9 µM (inactive)"
- COMPOUND: "Cc1cc2c(cc1C)[n+]([O-])c(N1CCN(c3ccc([N+](=O)[O-])cc3)CC1)c(C#N)[n+]2[O-]"
  SYSTEM: "NCI-H460"
  REPORTED: "20.3 µM (inactive)"
- COMPOUND: "COc1cc(/C=C2\\N=C(c3ccccc3)N(c3ccc(C(=O)c4ccccc4)cc3N3C(=O)/C(=C/c4ccc(O)c(OC)c4)N=C3c3ccccc3)C2=O)ccc1O"
  SYSTEM: "NCI-H460"
  REPORTED: "4.66 µM (inactive)"

Input line: Recorded GI50 for `Cc1csc2c1C(=O)c1ccsc1C2=O` with NCI-H460, please?
Output line: 1.87 µM (inactive)

----------
# Test system: NCI/ADR-RES
# EXPERIMENTAL_DETAILS: NCI tumour cell line growth inhibition, 48 h
Active and inactive are the calls of the source. Cut-off read from the data, not from the text of the source: active = GI50 up to about 1.1 µM and inactive = higher.
REPORTED_PROPERTY: GI50

Example molecules with recorded GI50:
- MOLECULE: "N#CC12C(=O)N=C(N)C1(C#N)C(c1ccco1)NC1=C2CCCC1 (configuration not stated)"
  GI50: "> 100 µM (inactive)"
- MOLECULE: "O=C1Nc2c(Cl)cc(Cl)cc2C1=O"
  GI50: "19.7 µM (inactive)"
- MOLECULE: "O=c1[nH]nc(Cc2ccccc2)n1C1CCCC1"
  GI50: "> 100 µM (inactive)"
- MOLECULE: "Cc1ccc2c(c1)C(=O)c1nc(C)ccc1C2=O"
  GI50: "21.4 µM (inactive)"
- MOLECULE: "CN(C)c1n/c(=N/Cc2cccs2)ss1"
  GI50: "> 10 µM (inactive)"

Input line: Given COc1ccc(C(C)c2cc3c(cc2O)OCO3)cc1 (configuration not stated) , state its recorded GI50.
Output line: 10.8 µM (inactive)

Input line: If you can, please state the reported GI50 value of `COc1cc(S(=O)(=O)Nc2nc(-c3ccc(N4C(=O)/C(=C/C=C/c5ccccc5)N=C4c4ccccc4)cc3)cs2)ccc1Cl` .
Output line: > 100 µM (inactive)

Input line: Need GI50, item `Cn1c(=O)c2nc(CCNC(=O)c3ccccc3)[nH]c2n(C)c1=O`
Output line: > 100 µM (inactive)

Input line: # input molecule: `N#Cc1[nH]c(=S)[nH]c1N` ; wanted: its GI50
Output line: > 100 µM (inactive)

Input line: Which measured GI50 value corresponds to `CN1CCN(C(=S)N2CCN(C)CC2)CC1` ?
Output line: 25.3 µM (inactive)

Input line: Bench note: what GI50 did Cc1cc(C)c(N[S+]([O-])c2ccc(Cl)cc2)c(C)c1 (configuration not stated) show?
Output line: > 100 µM (inactive)

Input line: # input molecule: `O=C1CCC[C@@H]2NC[C@@H](c3ccc4c(c3)OCO4)[C@H]12` ; wanted: its GI50
Output line: > 25 µM (inactive)

----------
# Test system: OVCAR-8
# EXPERIMENTAL_DETAILS: NCI tumour cell line growth inhibition, 48 h
Calls of active or inactive are those of the source. Cut-off read from the data, not from the text of the source: active = GI50 up to about 1.1 µM and inactive = higher.
Please answer using one outcome listed in 1 for active, -1 for inactive

A selection of reference data follows.
- COMPOUND: "NS(=O)(=O)c1cc(Cl)c(NC(=S)NC(=O)Nc2ccc(Cl)c(Cl)c2)c(Cl)c1"
  LABEL: -1
- COMPOUND: "CC(=O)OCCOCn1c2c(c(=O)[nH]c1=O)CCC2"
  LABEL: -1
- COMPOUND: "O/N=C1\\C/C(=N\\O)c2c(Br)sc(Br)c21"
  LABEL: -1

Input line: Tell me the recorded outcome of this test for `Nc1nc(N)c2ncn(Cc3ccccc3CCl)c2n1` .
Output line: -1
